experimental system: Gal(b1-4)GlcNAc(b1-2)Man(a1-6)[Man(a1-3)]Man(b1-4)GlcNAc(b1-4)GlcNAc
experiment summary: glycan array binding signal (z-score within array); higher = stronger binding
condition parameters: glycan notation: IUPAC condensed, linker removed
Many of the other results were omitted from the sample, so the strongest signals are more common in it than they were.
Examples of binders with documented glycan array binding signal (z-score) follow.
Form field (numeric): enter value without unit.

Microvirin-2 (Microcystis aeruginosa) (protein) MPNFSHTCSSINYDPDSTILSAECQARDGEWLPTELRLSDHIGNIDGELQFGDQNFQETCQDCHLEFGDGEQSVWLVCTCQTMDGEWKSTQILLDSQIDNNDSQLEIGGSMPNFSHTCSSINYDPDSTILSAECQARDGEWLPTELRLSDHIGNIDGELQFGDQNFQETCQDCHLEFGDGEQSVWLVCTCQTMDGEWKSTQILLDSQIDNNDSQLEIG    -0.141

Check the records and state glycan array binding signal (z-score) for XTP3-B-MRH2 (Homo sapiens), Q96DZ1 (protein) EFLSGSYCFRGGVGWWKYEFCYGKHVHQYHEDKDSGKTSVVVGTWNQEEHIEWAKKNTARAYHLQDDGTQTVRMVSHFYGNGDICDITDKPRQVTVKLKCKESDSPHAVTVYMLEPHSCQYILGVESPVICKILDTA
2.47

Identify the reported glycan array binding signal (z-score) for the following entry. SP15308F-bth-333-19-333 (Bacteroides thetaiotaomicron) (protein) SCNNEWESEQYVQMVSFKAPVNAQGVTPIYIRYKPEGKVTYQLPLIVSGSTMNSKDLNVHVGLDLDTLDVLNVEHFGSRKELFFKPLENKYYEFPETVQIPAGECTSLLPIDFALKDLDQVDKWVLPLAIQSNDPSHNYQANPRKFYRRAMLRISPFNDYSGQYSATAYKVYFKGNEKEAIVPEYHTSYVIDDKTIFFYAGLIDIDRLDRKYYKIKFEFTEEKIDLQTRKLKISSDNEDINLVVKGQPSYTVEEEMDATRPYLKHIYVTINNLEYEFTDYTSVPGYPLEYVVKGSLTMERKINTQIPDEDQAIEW
-0.531
